B1: glmS ribozyme (parent)
chain: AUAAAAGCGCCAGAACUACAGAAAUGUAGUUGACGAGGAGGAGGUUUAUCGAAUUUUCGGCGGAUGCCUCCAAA

variants of: B1; assay: self-cleavage kobs at 2500 uM GlcN6P; higher = faster cleavage; RNA array; settings: with glucosamine-6-phosphate
Fewer inactive variants are shown than the library holds.
// self-cleavage kobs at 2500 uM GlcN6P lookup, one value per entry
readout type: self-cleavage kobs at 2500 uM GlcN6P

{"columns": ["sequence code", "result"],
 "data": [
  ["AUAAAAGCGCCAGAACUACAGAAAUGUAGCUGACGAGGACGAGGUUUAUCGAAUUUUCGGCGGAUGCCUCCAAA [U30C G40C]", "2.58e-05 s⁻¹"],
  ["AUAAAAGCGCCAGAACUACAGAAAUGUAUUUGACGAGGAGGAGGGUUAUCGAAUUUUCGGCGGAUGCCUCUAAA [G29U U45G C71U]", "0.000117 s⁻¹"],
  ["AUAAAAUCGCCAGAACUACAGAAAUGUAGUUGACGAGGAGGAGGUUUAUCGAACUUUCGGAGGAUGCCUCCAAA [G7U U54C C61A]", "< 1e-05 s⁻¹"],
  ["AUAAAAGCGGCAGAACUACAGAAAUGUAGUUGACGAGGAGGAGCUUUAUCGAAUUUUCGGCGGAUGCCUCCAAA [C10G G44C]", "< 1e-05 s⁻¹"],
  ["AUAAAAGCGCCAGAACUACAGAAAUGUAGUUGACGAGGAGGAGGUUUAUCGAAUUUCCGGCGGAUGUCUCCAAA [U57C C67U]", "3.71e-05 s⁻¹"],
  ["AUAAAAGCGCCAGGACUACAGAAAUGUAGUCGACGAGGAGGAGGUUUAUCGAAUUAUCGGCGGAUGCCUCCAAA [A14G U31C U56A]", "0.0277 s⁻¹"],
  ["AUAAAAGCGCCAGAAGUACAGAAAUGUAGUUGACGAGGGGGAGGUUUAUCGAAUUUUCGGCGGAUGCCUCAAAA [C16G A39G C71A]", "0.000286 s⁻¹"],
  ["AUAAAAGCGCCAGAACUACAGAAAUGUAGUUGACGAUCAGGAGGUUUAUCGAAUCUUCGGCGGAUGCCUCCAAA [G37U G38C U55C]", "< 1e-05 s⁻¹"]
]}
